CONDITION CONTEXT: buffer; pH 7.4; 200.0 µM
QUANTITY KIND: solubility kinetic (µg/mL)
Kindly provide the numeric value in µg/mL only, without the unit symbol.

Q. Give the reported value of solubility kinetic for this record: COc1ccccc1CNC(=O)c1ccc(NC(=O)CC2SC(N3CCCC3)=NC2=O)cc1 (stereo unspecified)
A. 9.4

Q. Entry Cn1c(COc2ccccc2)nc2ccccc21 needs its solubility kinetic filled in; supply it.
A. 23.2

Q. Please report solubility kinetic for the following molecule: Cc1cccc(-c2nc(C#N)c(NCc3ccco3)o2)c1
A. 1.9

---

CONDITION CONTEXT: buffer; pH 7.4; 200.0 µM
Given measured solubility kinetic, output Yes if it is greater than or equal to 5 µg/mL and No if not.

Q. Evaluate CC(C)c1ccc(C(O)P(=O)(OCc2ccccc2)c2ccc(N(C)C)cc2)cc1 (configuration not stated) : solubility kinetic at minimum 5 µg/mL?
A. Yes

Q. Tell me whether solubility kinetic is at least 5 µg/mL here: Cc1nc(CN(C)Cc2nc(Cc3ccccc3Cl)no2)cs1
A. Yes

Q. Would you say COc1cc(C(=O)N2C(=O)CCC2=O)cc(OC)c1OC shows solubility kinetic at minimum 5 µg/mL?
A. Yes

Q. Given O=C(CCC1CCCCC1)NC1CCCCC1 , state whether its solubility kinetic is at least 5 µg/mL.
A. Yes

Q. Please check the record COc1ccccc1N1CCN(C(=O)c2cc3cc(F)ccc3[nH]2)CC1 and state if its solubility kinetic is at or above 5 µg/mL.
A. No

Q. State whether the measured solubility kinetic reaches 5 µg/mL, counting equality as reaching it, for CC1=C(C(N)=O)C(c2cccs2)NC(=O)N1 (configuration not stated)
A. Yes

Q. Given Cl.c1ccc([C@H]2CN3CCSC3=N2)cc1 , state whether its solubility kinetic is at least 5 µg/mL.
A. Yes

Q. Does solubility kinetic meet or surpass 5 µg/mL for O=C(NNC(=S)NC1CC2C=CC1C2)c1cccnc1 (configuration not stated) ?
A. Yes

Q. Assess whether reported solubility kinetic for O=C(NCc1ccccc1Cl)c1ccc2c(c1)OCO2 sits at 5 µg/mL or higher.
A. Yes

Q. Can CC1=C(C)C(C)=C(C#N)C(=C(C#N)C#N)N1 be said to have solubility kinetic at or above 5 µg/mL?
A. Yes

Q. Assess whether reported solubility kinetic for CCn1cc(C(=O)OCC(=O)Nc2ccccc2OC(F)F)c(=O)c2ccc(C)nc21 sits at 5 µg/mL or higher.
A. No

Q. Say whether COc1ccc(NC(=O)Nc2cc(F)ccc2C)cc1 shows solubility kinetic of 5 µg/mL or more.
A. No

---

CONDITION CONTEXT: buffer; pH 7.4; 200.0 µM
Entry flag: T if solubility kinetic reaches 20 µg/mL; F if it does not.

Q. Item O=C(NCCCCc1ccccc1)c1cccc(Br)c1 with solubility kinetic of 20 µg/mL or above?
A. F

Q. Item CN(C(=O)CO/N=C/c1ccc(Cl)cc1)c1ccccc1 with solubility kinetic of 20 µg/mL or above?
A. T

Q. Could you verify whether the entry COc1ccc(N2CCN(C(=O)c3cc4c(s3)CCCCC4)CC2)cc1 shows solubility kinetic of no less than 20 µg/mL?
A. F

Q. Decide: solubility kinetic of COc1ccc(-c2nc(CN3CCN(c4ncccn4)CC3)c(C)o2)cc1C >= 20 µg/mL?
A. T

Q. Could you please find out whether CCOC(=O)Nc1ccc2c(c1)N(C(=O)CCN1CCOCC1)c1ccccc1S2 has solubility kinetic that meets 20 µg/mL or exceeds it?
A. T

Q. Assess whether reported solubility kinetic for O=C(OCc1cc2ccccc2[nH]c1=O)c1ccc([N+](=O)[O-])cc1 sits at 20 µg/mL or higher.
A. F

Q. # check: solubility kinetic of Cc1ccsc1C(=O)NNC(=S)NC1CCCCC1 is greater than or equal to 20 µg/mL
A. T

Q. Identify whether the reported solubility kinetic of the following compound is 20 µg/mL or greater: CC1(C)CN=C(N(C(=O)Nc2ccccc2)c2ccccc2F)S1
A. F

Q. Reported solubility kinetic at or above 20 µg/mL? COc1ccccc1OC(C)C(=O)N1CCC(Cc2ccccc2)CC1 (centres undefined)
A. T

Q. Hello, I need to know if Cc1ccc(CCC(=O)Nc2ccc([N+](=O)[O-])cc2Cl)o1 has measured solubility kinetic not below 20 µg/mL. Thanks!
A. F

Q. Confirm if solubility kinetic reported for the compound Cc1ccccc1CN1C(=O)c2ccccc2Sc2ccc(C(=O)O)cc21 is 20 µg/mL or above.
A. T

Q. Entry COc1ccc(OC)c2sc(Cl)nc12 : is its solubility kinetic no less than 20 µg/mL?
A. F

Q. Tell me whether solubility kinetic is at least 20 µg/mL here: CCN(CC)CCOC(=O)c1ccc(Cl)cc1Cl.Cl
A. T

Q. Decide: solubility kinetic of COc1ccc2cc(S(=O)(=O)NCc3cccnc3)ccc2c1 >= 20 µg/mL?
A. F

Q. Quick check: does COc1ccc(NC(=O)CN(C)C(=O)Cc2ccsc2)cc1 have solubility kinetic greater than or equal to 20 µg/mL?
A. T

Q. Does the reported solubility kinetic for COc1ccc(NS(=O)(=O)c2cc(NC(=O)COc3ccccc3)ccc2N2CCOCC2)cc1 fall at or above the 20 µg/mL mark?
A. F

Q. Quick check, solubility kinetic >= 20 µg/mL? Cc1csc(NC(=O)C2CC(=O)N(c3ccc(C)c(C)c3)C2)n1 (centres undefined)
A. T

Q. solubility kinetic >= 20 µg/mL for CCS(=O)(=O)N1CCC(C(=O)NCc2ccc(OC)cc2)CC1 ?
A. T

Q. Kindly determine if solubility kinetic recorded for c1ccc(CCCc2nc(-c3cccnc3)no2)cc1 is above or exactly 20 µg/mL.
A. T

Q. Does the compound Cc1ccc(S(=O)(=O)N(C)CC(=O)NCCCn2ccnc2)cc1 have recorded solubility kinetic that is 20 µg/mL or more?
A. T

Q. Confirm if solubility kinetic reported for the compound COc1ccccc1N1CCN(C(=O)c2ccco2)CC1 is 20 µg/mL or above.
A. T

Q. Item O=C1CSC(c2cccnc2)N1c1ccccc1 (centres undefined) with solubility kinetic of 20 µg/mL or above?
A. T

Q. solubility kinetic >= 20 µg/mL for CCOc1ccc2[nH]c3c(NCCO)ncnc3c2c1 ?
A. T

Q. Decide: solubility kinetic of COc1ccc(Cl)cc1/C=C(\C#N)C(N)=O >= 20 µg/mL?
A. T

Q. Dear colleague, could you confirm whether O=C(Nc1ccc2ccccc2c1)c1cccc([N+](=O)[O-])c1 has solubility kinetic at or above 20 µg/mL?
A. F

Q. Decide: solubility kinetic of O=C(NC(=O)N1CCSCC1)c1c(Cl)cccc1Cl >= 20 µg/mL?
A. T

Q. Is the recorded value of solubility kinetic equal to or greater than 20 µg/mL for this compound? O=C(Nc1ccc(F)cc1F)c1ccc(S(=O)(=O)NCc2ccco2)cc1
A. F

Q. Kindly determine if solubility kinetic recorded for Cn1c(SCc2ccccc2Br)nc2ccccc2c1=O is above or exactly 20 µg/mL.
A. F

Q. Determine whether this compound has solubility kinetic no lower than 20 µg/mL: O=C(CSc1nccc(=O)[nH]1)NC1CCCCCC1
A. T

Q. Answer whether solubility kinetic of COc1ccc(NC(=O)CSCCc2ccccn2)cc1OC is greater than or equal to 20 µg/mL.
A. T

Q. State whether the measured solubility kinetic reaches 20 µg/mL, counting equality as reaching it, for O=C(Nc1ccccc1Cl)NC1CCCCCCC1
A. F

Q. Reported solubility kinetic reaches at least 20 µg/mL for COC(=O)c1sccc1NC(=O)Nc1ccccc1C ?
A. T

Q. State whether the measured solubility kinetic reaches 20 µg/mL, counting equality as reaching it, for Cc1nc(-c2cccs2)ccc1C(=O)O
A. T

Q. Decide: is the reported value of solubility kinetic for Cc1cc(C)c(NC(=O)C2CCCO2)c(C)c1 (centres undefined) equal to or greater than 20 µg/mL?
A. T

Q. I'd appreciate it if you could say whether Cc1ccc(C)c(Nc2c([N+](=O)[O-])c(=O)oc3ccccc23)c1 has solubility kinetic at least equal to 20 µg/mL.
A. F

Q. # check: solubility kinetic of CCCCC(=O)N1CC(=O)Nc2ccc(F)cc2C1c1ccccc1 (centres undefined) is greater than or equal to 20 µg/mL
A. T

Q. # check: solubility kinetic of COc1ccc2[nH]c(C)c(-c3csc(N)n3)c2c1 is greater than or equal to 20 µg/mL
A. T

Q. Hi team, for COC(=O)CSc1nc2cc3c(cc2cc1C)OCO3 , is the recorded solubility kinetic at or above 20 µg/mL?
A. F

Q. Is solubility kinetic at least 20 µg/mL? Consider CCNC(=S)N1CCC(NC(=O)c2ccco2)CC1
A. T

Q. Decide: is the reported value of solubility kinetic for COc1ccc(NC(=O)C2(c3ccccc3)CCCC2)cc1 equal to or greater than 20 µg/mL?
A. F

Q. Test whether the compound CCCCNC(=O)N1CCN(c2ccnc3cc(Cl)ccc23)CC1 records solubility kinetic of 20 µg/mL or higher.
A. T

Q. Is solubility kinetic at least 20 µg/mL? Consider Cc1ccc(NC(=S)N(C)C)cc1C
A. T

Q. Reported solubility kinetic reaches at least 20 µg/mL for Cc1ccc(NC(=O)Cc2nc(COC(=O)c3c(F)cccc3Cl)cs2)cc1 ?
A. F

Q. Would you say NS(=O)(=O)c1ccc(F)c(C(=O)O)c1 shows solubility kinetic at minimum 20 µg/mL?
A. T

Q. Could you tell me if the measured solubility kinetic of CC1(C)C(=O)OC(/C=C/c2cccc([N+](=O)[O-])c2)C(C)(C)C1=O (centres undefined) reaches 20 µg/mL or more?
A. F

Q. Quick check, solubility kinetic >= 20 µg/mL? O=C(NOCc1ccccc1)c1ccc(Cl)cc1Cl
A. T

Q. Say whether O=C(c1c[nH]c2ccccc12)C(Cl)c1ccccc1 (centres undefined) shows solubility kinetic of 20 µg/mL or more.
A. F

Q. Quick check: does O=C(Nc1ccc(OCc2ccccc2)cc1)c1cccs1 have solubility kinetic greater than or equal to 20 µg/mL?
A. F

Q. Please check the record COc1ccc2oc(C(=O)OCC(=O)N3C(C)CCCC3C)c(C)c2c1 (centres undefined) and state if its solubility kinetic is at or above 20 µg/mL.
A. T
